Attribution: patent US12139473B2

# systemTested: hKv3.1 (Homo sapiens, UniProt P48547)
# Construct: expressed in transfected cells
# Sequence (P48547 1-511): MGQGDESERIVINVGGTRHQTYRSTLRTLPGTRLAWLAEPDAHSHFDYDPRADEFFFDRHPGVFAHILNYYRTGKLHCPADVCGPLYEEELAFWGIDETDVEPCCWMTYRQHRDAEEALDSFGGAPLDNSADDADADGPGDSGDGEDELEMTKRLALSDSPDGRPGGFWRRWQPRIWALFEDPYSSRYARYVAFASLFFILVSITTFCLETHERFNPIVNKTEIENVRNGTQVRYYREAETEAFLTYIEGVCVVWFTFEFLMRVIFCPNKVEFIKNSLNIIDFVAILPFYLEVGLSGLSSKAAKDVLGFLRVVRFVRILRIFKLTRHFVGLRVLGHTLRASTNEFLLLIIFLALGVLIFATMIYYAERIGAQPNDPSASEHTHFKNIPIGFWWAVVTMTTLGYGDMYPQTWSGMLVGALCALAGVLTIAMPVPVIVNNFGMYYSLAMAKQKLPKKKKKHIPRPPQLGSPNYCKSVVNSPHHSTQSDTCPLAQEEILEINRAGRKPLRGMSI
# methodSummary: Automated patch clamp electrophysiology (Patchliner), CHO/Kv3.1 cells
# Format: cell-based
# appliedConditions: 10 μM compound; peak current at voltage step of −10 mV vs vehicle (0.33% DMSO); hKv3.1 in CHO-K1, whole-cell
assayMetric: Kv3.1 Activity at 10 μM Potentiation (%)

For orientation, consider the following solved cases.
COc1cc(Oc2ccnc(N3C(=O)NC(C)(C)C3=O)n2)ccc1C | 22
Cc1ccc(Oc2cc(N3C(=O)NC(C)(C)C3=O)ncn2)cc1OC(F)(F)F | 33
COc1cc(Oc2cncc(N3C(=O)NC(C)(C)C3=O)n2)ccc1F | 15
COc1ccc(Oc2cc(N3C(=O)NC(C)(C)C3=O)ncn2)cc1C | 37

[1] CC[C@H]1NC(=O)N(c2nccc(Oc3ccc(C)c(OC)c3)n2)C1=O
[2] Cc1ccc(Oc2cc(N3C(=O)NC(C)(C)C3=O)ncn2)cc1OC(C)C
[3] COc1cccc(Oc2cc(N3C(=O)NC(C)(C)C3=O)ncn2)c1
Incoming: Highest Kv3.1 Activity at 10 μM Potentiation (%) first, then in falling order down to the smallest. A complete answer lists every label in the requested sequence.
Outgoing: 1, 2, 3

----------
# systemTested: hKv3.1 (Homo sapiens)
# Construct: expressed in transfected cells
# Sequence (P48547 1-511): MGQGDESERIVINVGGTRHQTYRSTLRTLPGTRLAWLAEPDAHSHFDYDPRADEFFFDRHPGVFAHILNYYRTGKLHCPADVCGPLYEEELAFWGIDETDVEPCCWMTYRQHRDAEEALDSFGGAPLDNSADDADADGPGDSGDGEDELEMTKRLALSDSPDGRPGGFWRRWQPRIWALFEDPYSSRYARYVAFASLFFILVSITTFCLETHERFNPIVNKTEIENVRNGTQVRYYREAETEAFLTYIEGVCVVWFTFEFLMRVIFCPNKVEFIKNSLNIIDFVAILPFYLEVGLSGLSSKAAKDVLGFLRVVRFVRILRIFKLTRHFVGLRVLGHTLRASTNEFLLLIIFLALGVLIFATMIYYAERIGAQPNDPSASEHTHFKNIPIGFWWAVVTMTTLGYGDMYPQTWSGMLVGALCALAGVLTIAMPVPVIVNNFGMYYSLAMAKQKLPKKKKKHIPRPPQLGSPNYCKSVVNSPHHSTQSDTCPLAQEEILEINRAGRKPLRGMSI
# methodSummary: Automated patch clamp electrophysiology (Patchliner), CHO/Kv3.1 cells
# Format: cell-based
# appliedConditions: 10 μM compound; voltage shift of the IV curve at V1/2; hKv3.1 in CHO-K1, whole-cell
assayMetric: Kv3.1 Activity at 10 μM Voltage Shift (mV)

CC[C@@]1(C)NC(=O)N(c2ccnc(Oc3ccc(C)c(OC)c3)n2)C1=O | −3.1
CC[C@H]1NC(=O)N(c2cc(Oc3ccc(C)c(OC)c3)ncn2)C1=O | −3.9
COc1cc(Oc2cncc(N3C(=O)NC(C)(C)C3=O)n2)ccc1C | −4.0

----------
# systemTested: hKv3.2 (Homo sapiens)
# Construct: expressed in transfected cells
# Sequence (Q96PR1 1-638): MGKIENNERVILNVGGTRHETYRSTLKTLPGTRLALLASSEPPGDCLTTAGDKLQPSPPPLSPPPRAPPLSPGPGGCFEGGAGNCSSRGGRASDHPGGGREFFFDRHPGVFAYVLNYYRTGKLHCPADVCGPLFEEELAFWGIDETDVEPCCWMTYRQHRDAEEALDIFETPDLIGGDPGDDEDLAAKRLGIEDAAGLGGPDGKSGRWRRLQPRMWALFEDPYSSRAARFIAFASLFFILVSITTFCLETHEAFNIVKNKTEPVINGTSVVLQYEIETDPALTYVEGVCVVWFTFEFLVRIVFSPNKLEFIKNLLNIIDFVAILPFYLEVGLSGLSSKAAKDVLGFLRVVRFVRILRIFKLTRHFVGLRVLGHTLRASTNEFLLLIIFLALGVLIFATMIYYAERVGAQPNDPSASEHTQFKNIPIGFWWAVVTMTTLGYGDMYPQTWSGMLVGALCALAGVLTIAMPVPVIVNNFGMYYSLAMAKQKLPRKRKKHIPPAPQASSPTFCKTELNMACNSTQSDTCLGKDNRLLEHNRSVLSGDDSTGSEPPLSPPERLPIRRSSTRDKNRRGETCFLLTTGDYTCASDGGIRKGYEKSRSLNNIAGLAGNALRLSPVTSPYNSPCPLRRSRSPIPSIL
# methodSummary: Automated patch clamp electrophysiology (Patchliner), CHO/Kv3.2 cells
# Format: cell-based
# appliedConditions: 10 μM compound; peak current at voltage step of −10 mV vs vehicle (0.33% DMSO); hKv3.2 in CHO-K1, whole-cell; read-out: Kv3.2 Activity at 10 μM Potentiation (%)
assayMetric: activation at 10 µM (%)

For orientation, consider the following solved cases.
COc1cc(Oc2nccc(N3C(=O)NC(C)(C)C3=O)n2)ccc1Cl | 54
CC[C@H]1NC(=O)N(c2nccc(Oc3ccccc3-c3ccccc3)n2)C1=O | 39
COc1cc(Oc2cncc(N3C(=O)NC(C)(C)C3=O)n2)ccc1C | 49

[A] COc1cc(Oc2nccc(N3C(=O)NC4(CCCCC4)C3=O)n2)ccc1C
[B] CC[C@H]1NC(=O)N(c2nccc(Oc3ccc(C)c(OC)c3)n2)C1=O
Incoming: // compare measured activation at 10 µM between A and B ; output the lower one Your answer should be the label of the entry you select.
Outgoing: A
